The values you see were collected from patent US10131642B1.

Biological target: aldosterone synthase (CYP11B2) (Macaca fascicularis)
Sequence (A0A2K5UPL9 1-503): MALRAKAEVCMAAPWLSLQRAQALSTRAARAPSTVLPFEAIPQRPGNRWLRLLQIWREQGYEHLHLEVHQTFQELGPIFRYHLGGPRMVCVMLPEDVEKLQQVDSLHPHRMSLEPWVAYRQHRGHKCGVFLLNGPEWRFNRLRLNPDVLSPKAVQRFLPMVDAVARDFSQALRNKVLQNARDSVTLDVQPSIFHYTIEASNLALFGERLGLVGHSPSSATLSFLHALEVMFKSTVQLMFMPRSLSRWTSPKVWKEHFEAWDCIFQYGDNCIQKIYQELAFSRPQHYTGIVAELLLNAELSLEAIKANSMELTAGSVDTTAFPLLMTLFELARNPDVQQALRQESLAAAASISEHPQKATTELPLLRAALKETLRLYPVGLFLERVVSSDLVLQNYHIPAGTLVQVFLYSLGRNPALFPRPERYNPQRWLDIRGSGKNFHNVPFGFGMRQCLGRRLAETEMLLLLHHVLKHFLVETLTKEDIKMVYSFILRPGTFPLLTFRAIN
quantity-name: IC50 (nM)

Worked examples, 2 molecules total:
{"molecule": "CC1(C)CC(=O)c2c(noc2Cc2ccc(C(=O)N3CCC[C@@H](O)C3)cc2)C1", "IC50, nM": 180}
{"molecule": "CC(C)C1CC(=O)c2c(noc2Cc2ccc(C#N)cc2)C1 (single isomer, unassigned) [Cpd 39B]", "IC50, nM": 120}

P. CN(C)C(=O)CCCOc1ccc(Cc2onc3c2C(=O)CC(C)(C)C3)cc1
Q. CC1(C)CC(=O)c2c(noc2Cc2ccc(C(=O)NCCS(C)(=O)=O)cc2)C1
[ask] Return label of the item with the larger IC50. Candidates: P , Q . Mark your answer with the label of the selected entry.
[reply] Q
(Q: 91 nM, P: 23 nM)

I. CC1(C)CC(=O)c2c(noc2Cc2ccc(C(=O)N3CC[C@@H](O)C3)cc2)C1
II. CC1CC(=O)c2c(noc2Cc2ccc(C(N)=O)cc2)C1 (stereo not shown)
III. O=C1CC2(CCC2)Cc2noc(Cc3ccccc3)c21
IV. C[C@@H](O)CNC(=O)c1ccc(Cc2onc3c2C(=O)CC(C)(C)C3)cc1
V. O=C1CC(Cc2ccccc2)Cc2noc(Cc3ccccc3)c21 (stereo not shown)
[ask] Rank order required: IC50, descending. Order the labels as requested and give them as your answer.
[reply] IV, I, II, V, III
(IV: 230 nM, I: 130 nM, II: 82 nM, V: 49 nM, III: 7.2 nM)

A. CC1(C)CC(=O)c2c(noc2Cc2ccc(Br)cc2)C1
B. CC(C)C1CC(=O)c2c(noc2Cc2ccc(C(N)=O)cc2)C1 (stereo not shown)
[ask] Of A and B , whose reported IC50 is numerically smaller? Mark your answer with the label of the selected entry.
[reply] B

A. CC1(C)CC(=O)c2c(noc2Cc2ccc(C#N)c(F)c2)C1
B. CC1(C)CC(=O)c2c(noc2Cc2ccc(C(=O)N3CC[C@H](O)C3)cc2)C1
[ask] Of A and B , whose reported IC50 is numerically smaller? Mark your answer with the label of the selected entry.
[reply] A

A. O=C1CC(Cc2ccccc2)Cc2noc(Cc3ccc(C(=O)N4CC[C@@H](O)C4)cc3)c21 (stereo partly shown)
B. CC1CC(=O)c2c(noc2Cc2ccc(C#N)cc2)C1 (stereo not shown)
[ask] Of A and B , whose reported IC50 is numerically smaller? Mark your answer with the label of the selected entry.
[reply] A
